assayedSystem: Cav1.2 (voltage-dependent L-type calcium channel subunit alpha-1C) (Rattus norvegicus, UniProt P22002)
Sequence (P22002 whole entry): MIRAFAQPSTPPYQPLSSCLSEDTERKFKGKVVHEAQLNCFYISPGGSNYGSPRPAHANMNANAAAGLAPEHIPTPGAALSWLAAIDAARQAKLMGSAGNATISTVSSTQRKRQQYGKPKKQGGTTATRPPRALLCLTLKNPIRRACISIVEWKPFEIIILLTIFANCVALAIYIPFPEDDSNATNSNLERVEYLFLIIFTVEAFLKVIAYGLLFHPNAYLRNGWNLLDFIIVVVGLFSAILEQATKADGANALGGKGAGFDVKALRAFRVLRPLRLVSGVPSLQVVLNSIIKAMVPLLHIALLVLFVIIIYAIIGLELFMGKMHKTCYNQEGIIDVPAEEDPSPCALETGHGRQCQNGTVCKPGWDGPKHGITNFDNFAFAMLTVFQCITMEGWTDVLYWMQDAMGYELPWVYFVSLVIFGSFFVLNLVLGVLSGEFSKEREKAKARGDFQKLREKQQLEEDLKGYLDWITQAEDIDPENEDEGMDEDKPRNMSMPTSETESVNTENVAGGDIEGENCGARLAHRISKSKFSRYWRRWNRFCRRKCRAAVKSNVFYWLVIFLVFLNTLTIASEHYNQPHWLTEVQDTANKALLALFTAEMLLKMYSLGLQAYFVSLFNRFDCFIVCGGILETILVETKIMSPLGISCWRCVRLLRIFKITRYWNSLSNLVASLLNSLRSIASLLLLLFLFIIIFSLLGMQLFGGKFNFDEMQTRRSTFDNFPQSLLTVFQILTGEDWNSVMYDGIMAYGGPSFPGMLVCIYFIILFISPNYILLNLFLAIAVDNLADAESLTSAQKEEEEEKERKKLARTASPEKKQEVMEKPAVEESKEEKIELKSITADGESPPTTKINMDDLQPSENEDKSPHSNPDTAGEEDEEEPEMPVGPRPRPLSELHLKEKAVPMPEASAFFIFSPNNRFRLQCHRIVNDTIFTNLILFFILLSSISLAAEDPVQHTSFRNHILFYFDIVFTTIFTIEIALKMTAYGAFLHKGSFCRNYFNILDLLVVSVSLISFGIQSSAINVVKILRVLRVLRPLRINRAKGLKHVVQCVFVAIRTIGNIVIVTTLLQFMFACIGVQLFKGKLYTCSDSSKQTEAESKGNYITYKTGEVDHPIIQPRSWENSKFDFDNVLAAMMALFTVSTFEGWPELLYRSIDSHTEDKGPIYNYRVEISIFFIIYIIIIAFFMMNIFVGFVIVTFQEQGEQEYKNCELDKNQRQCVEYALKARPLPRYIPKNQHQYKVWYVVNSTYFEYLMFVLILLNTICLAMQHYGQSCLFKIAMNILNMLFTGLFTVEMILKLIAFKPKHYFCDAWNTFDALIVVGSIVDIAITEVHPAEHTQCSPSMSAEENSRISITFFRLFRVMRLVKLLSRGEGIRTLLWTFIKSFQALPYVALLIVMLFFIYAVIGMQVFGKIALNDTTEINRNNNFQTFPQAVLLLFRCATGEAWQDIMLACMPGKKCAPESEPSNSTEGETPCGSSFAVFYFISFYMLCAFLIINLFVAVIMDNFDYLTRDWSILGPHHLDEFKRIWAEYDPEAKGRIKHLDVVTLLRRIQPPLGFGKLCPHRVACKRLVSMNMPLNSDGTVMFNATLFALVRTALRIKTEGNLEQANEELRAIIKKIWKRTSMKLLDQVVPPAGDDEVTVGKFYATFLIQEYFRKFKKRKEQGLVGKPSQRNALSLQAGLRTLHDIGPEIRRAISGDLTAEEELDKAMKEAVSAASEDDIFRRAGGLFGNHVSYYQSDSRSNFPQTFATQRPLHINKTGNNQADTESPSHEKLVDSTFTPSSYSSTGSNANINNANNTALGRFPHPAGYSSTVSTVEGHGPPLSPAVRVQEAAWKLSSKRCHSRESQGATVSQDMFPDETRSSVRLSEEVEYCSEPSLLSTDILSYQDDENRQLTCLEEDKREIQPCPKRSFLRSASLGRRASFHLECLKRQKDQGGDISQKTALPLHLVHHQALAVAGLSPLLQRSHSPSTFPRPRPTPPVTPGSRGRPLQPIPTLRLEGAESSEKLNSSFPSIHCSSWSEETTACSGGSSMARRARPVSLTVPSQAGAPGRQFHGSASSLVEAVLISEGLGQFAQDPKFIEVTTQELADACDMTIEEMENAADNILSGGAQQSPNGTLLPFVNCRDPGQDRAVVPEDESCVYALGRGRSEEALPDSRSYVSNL
methodDescription: Inhibition of rat Cav1.2 at 10 uM at -90 mV holding potential by patch clamp electrophysiology assay relative to control
quantityMeasured: inhibition at 10 µM (%)

# molecule, measurementUnit, op, recordedValue
records = [
    ("CC1=C(C(=O)OCC(C)C)C(c2cc([N+](=O)[O-])cc(Br)c2O)C2=C(CCC(C)(C)C2=O)N1 (stereo not given)", "%", "=", 15),
    ("CC1=C(C(=O)OCc2ccccc2)C(c2cc([N+](=O)[O-])ccc2O)C2=C(CCC(C)(C)C2=O)N1 (stereo not given)", "%", "=", 70),
    ("CC1=C(C(=O)OCC(C)C)C(c2cc(Br)cc([N+](=O)[O-])c2O)C2=C(CCC(C)(C)C2=O)N1 (stereo not given)", "%", "=", 10),
    ("CC1=C(C(=O)OCC(C)C)C(c2cc([N+](=O)[O-])cc(Br)c2O)C2=C(CC(C)(C)CC2=O)N1 (stereo not given)", "%", "=", 70),
    ("CCOC(=O)C1=C(C)NC2=C(C(=O)C(C)(C)CC2)C1c1cc(Br)cc([N+](=O)[O-])c1O (stereo not given)", "%", "=", 50),
    ("CC1=C(C(=O)OC(C)(C)C)C(c2cc([N+](=O)[O-])ccc2O)C2=C(CCC(C)(C)C2=O)N1 (stereo not given)", "%", "<", 30),
    ("CC1=C(C(=O)OCC(C)C)C(c2cc([N+](=O)[O-])ccc2O)C2=C(CC(C)(C)CC2=O)N1 (stereo not given)", "%", "=", 30),
    ("COC(=O)C1=C(C)NC2=C(C(=O)C(C)(C)CC2)C1c1cc([N+](=O)[O-])ccc1O (stereo not given)", "%", "<", 30),
    ("CC1=C(C(=O)OCC(C)C)C(c2cc([N+](=O)[O-])ccc2O)C2=C(CCC(C)(C)C2=O)N1 (stereo not given)", "%", "=", 70),
    ("CCOC(=O)C1=C(C)NC2=C(C(=O)C(C)(C)CC2)C1c1cc([N+](=O)[O-])ccc1O (stereo not given)", "%", "=", 70),
]

Attribution: ChEMBL document CHEMBL4152280
